- Experimental system: Rat brain protein farnesyltransferase (Rattus norvegicus, UniProt Q02293+Q04631)
- Construct: Rat brain protein farnesyltransferase activity is measured; from tissue; host or cells: rat brain
- Assay text: % inhibition of farnesylation, scintillation proximity assay with biotin-K Ras B fragment
- Format: biochemical
- Experimental context: Table 3; 1 × 10^-7 M
Please note: Fulfilled applies when % inhibition at 1 × 10^-7 M is 90% or greater, and Not fulfilled applies otherwise.

{"columns": ["Compound", "Label"],
 "data": [
  ["CCCC[C@H](CC1CCCCC1)NCc1ccc(C(=O)N[C@@H](CCSC)C(=O)O)c(-c2ccccc2C)c1", "Fulfilled"],
  ["CCSC[C@H](CC1CCCCC1)N(Cc1ccc(C(=O)N[C@@H](CCSC)C(=O)O)c(-c2ccccc2C)c1)C(C)=O", "Not fulfilled"],
  ["CSCC[C@H](NC(=O)c1ccc(C=Cc2cncs2)cc1-c1ccccc1C)C(=O)[O-].[Li+]", "Fulfilled"],
  ["CSCC[C@H](NC(=O)c1ccc(CN(CCC2CCCCC2)C(C)=O)cc1-c1ccccc1C)C(=O)[O-].[Li+]", "Fulfilled"],
  ["CSCC[C@H](NC(=O)c1ccc(CNC(Cc2ccccc2)Cc2ccccc2)cc1-c1ccccc1C)C(=O)O", "Fulfilled"],
  ["CSCC[C@H](NC(=O)c1ccc(CNc2ccc(N3CCOCC3)cc2)cc1-c1ccccc1C)C(=O)O", "Not fulfilled"],
  ["CSCC[C@H](NC(=O)c1ccc(CN(CCC2CCCCC2)S(C)(=O)=O)cc1-c1ccccc1C)C(=O)O", "Fulfilled"],
  ["CCCC(CCC)NOCc1ccc(C(=O)N[C@@H](CCSC)C(=O)O)c(-c2ccccc2C)c1", "Not fulfilled"],
  ["CSCC[C@H](NC(=O)c1ccc(CN[C@H](CCCC(C)C)CC2CCCCC2)cc1-c1ccccc1C)C(=O)O", "Fulfilled"],
  ["CSCC[C@H](NC(=O)c1ccc(CCc2ccccc2Oc2ccccc2)cc1-c1ccccc1C)C(=O)[O-].[Li+]", "Not fulfilled"],
  ["CCSCC(CC1CCCCC1)N(Cc1ccc(C(=O)N[C@@H](CCSC)C(=O)O)c(-c2ccccc2C)c1)CC(C)C (stereo partly shown)", "Not fulfilled"],
  ["CCCCS(=O)(=O)N(Cc1ccc(C(=O)N[C@@H](CCSC)C(=O)O)c(-c2ccccc2C)c1)[C@H](CSCC)CC1CCCCC1", "Not fulfilled"],
  ["CSCC[C@H](NC(=O)c1ccc(CCc2ccccc2Cc2ccccc2)cc1-c1ccccc1C)C(=O)O", "Not fulfilled"],
  ["CSCC[C@H](NC(=O)c1ccc(CNc2ccc(Oc3ccccc3)cc2)cc1-c1ccccc1C)C(=O)O", "Not fulfilled"],
  ["CSCC[C@H](NC(=O)c1ccc(C#Cc2cncnc2)cc1-c1ccccc1C)C(=O)[O-].[Li+]", "Not fulfilled"],
  ["CSCC[C@H](NC(=O)c1ccc(CN(CCC23CC4CC(CC(C4)C2)C3)c2ccccc2)cc1-c1ccccc1C)C(=O)O", "Not fulfilled"],
  ["CSCC[C@H](NC(=O)c1ccc(CCc2ccc(C3CCCCC3)cc2)cc1-c1ccccc1C)C(=O)[O-].[Li+]", "Fulfilled"],
  ["CSCC[C@H](NC(=O)c1ccc(/C=C/c2ccc(Oc3ccccc3[N+](=O)[O-])cc2)cc1-c1ccccc1C)C(=O)O", "Fulfilled"],
  ["CSCC[C@H](NC(=O)c1ccc(CN(Cc2ccccc2)c2ccccc2[N+](=O)[O-])cc1-c1ccccc1C)C(=O)[O-].[Li+]", "Not fulfilled"],
  ["CSCC[C@H](NC(=O)c1ccc(CN[C@H](CO)C2CCCCC2)cc1-c1ccccc1C)C(=O)O", "Fulfilled"],
  ["CSCC[C@H](NC(=O)c1ccc(CN[C@H](CSc2ccccc2)CC2CCCCC2)cc1-c1ccccc1C)C(=O)O", "Fulfilled"],
  ["CCS(=O)(=O)C[C@H](CC1CCCCC1)NCc1ccc(C(=O)N[C@@H](CCS(C)(=O)=O)C(=O)O)c(-c2ccccc2C)c1", "Fulfilled"]
]}
